meta.source: patent US7605170B2

- experimental-system: human dopamine transporter (hDAT) (Homo sapiens, UniProt Q01959)
- Construct: expressed in transfected cells
- Sequence (Q01959 whole entry): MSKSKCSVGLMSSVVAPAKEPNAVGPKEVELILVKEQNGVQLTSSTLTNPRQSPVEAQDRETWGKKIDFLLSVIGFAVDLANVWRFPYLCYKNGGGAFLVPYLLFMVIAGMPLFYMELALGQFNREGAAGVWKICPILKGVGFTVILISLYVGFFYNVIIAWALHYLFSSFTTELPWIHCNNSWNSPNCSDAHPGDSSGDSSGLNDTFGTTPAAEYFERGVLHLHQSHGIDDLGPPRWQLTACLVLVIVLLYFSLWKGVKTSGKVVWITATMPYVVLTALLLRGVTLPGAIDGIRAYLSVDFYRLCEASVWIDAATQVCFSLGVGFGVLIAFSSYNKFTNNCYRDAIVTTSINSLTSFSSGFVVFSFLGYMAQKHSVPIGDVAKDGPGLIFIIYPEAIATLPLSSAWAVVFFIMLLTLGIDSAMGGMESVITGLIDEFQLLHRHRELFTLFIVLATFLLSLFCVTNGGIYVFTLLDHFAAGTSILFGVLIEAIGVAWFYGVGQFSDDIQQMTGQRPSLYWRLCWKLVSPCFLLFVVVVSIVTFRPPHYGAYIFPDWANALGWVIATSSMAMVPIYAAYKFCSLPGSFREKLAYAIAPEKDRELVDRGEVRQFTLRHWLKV
- test-name: Assay of monoamine uptake: inhibition of dopamine uptake
- Assay type: cell-based
- measurement-context: Chinese Hamster Ovary cells expressing hDAT; 20 nM [3H]-neurotransmitter mixture; ambient temperature; read-out: hDAT pEC50 (inhibition of dopamine uptake) (converted)
parameter-measured: EC50

Worked set:
{"columns": ["item-smiles", "EC50"],
 "data": [
  ["Clc1cc(Oc2ccccc2)cc(O[C@@H]2C[C@H]3CC[C@@H](C2)N3)c1", "< 100 nM"],
  ["N#Cc1ccc(-c2cc(C#N)cc(O[C@@H]3C[C@H]4CC[C@@H](C3)N4)c2)cc1", "> 1000 nM"],
  ["N#Cc1ccc(-c2cc(C#N)cc(O[C@@H]3C[C@H]4CC[C@@H](C3)N4)c2)nc1", "> 1000 nM"],
  ["FC(F)(F)c1ccccc1-c1cccc(O[C@@H]2C[C@H]3CC[C@@H](C2)N3)c1", "> 1000 nM"]
]}

List reported EC50 for each of these molecules:
1. COc1cc(Oc2ccccc2)cc(O[C@@H]2C[C@H]3CC[C@@H](C2)N3)c1F
2. c1ccc(Oc2cccc(O[C@H]3C[C@H]4CC[C@@H](C3)N4)c2)cc1

Key:
1. < 100 nM
2. < 100 nM

Lab book: EC50 of FC(F)(F)c1ccc(O[C@@H]2C[C@H]3CC[C@@H](C2)N3)cc1-c1ccccc1 noted as > 1000 nM

---

What EC50 was measured for each of the following?
- experimental-system: human serotonin transporter (hSERT) (Homo sapiens)
- Construct: expressed in transfected cells
- Sequence (P31645 whole entry): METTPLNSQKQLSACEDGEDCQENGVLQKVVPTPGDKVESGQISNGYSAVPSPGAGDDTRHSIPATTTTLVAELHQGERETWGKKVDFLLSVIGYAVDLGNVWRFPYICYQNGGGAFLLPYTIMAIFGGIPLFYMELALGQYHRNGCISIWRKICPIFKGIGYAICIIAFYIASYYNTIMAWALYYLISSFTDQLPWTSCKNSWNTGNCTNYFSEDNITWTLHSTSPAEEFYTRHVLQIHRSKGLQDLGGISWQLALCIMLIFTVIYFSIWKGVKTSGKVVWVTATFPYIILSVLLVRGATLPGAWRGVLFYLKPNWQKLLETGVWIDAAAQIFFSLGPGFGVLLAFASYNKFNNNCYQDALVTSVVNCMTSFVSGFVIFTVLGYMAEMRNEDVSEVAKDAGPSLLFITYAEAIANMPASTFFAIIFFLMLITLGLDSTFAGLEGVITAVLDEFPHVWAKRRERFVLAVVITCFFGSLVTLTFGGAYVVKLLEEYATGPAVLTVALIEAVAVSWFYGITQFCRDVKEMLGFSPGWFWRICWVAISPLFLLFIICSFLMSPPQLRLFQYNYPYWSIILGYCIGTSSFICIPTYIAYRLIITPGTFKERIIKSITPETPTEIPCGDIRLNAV
- test-name: Assay of monoamine uptake: inhibition of serotonin uptake
- Type: cell-based
- measurement-context: Chinese Hamster Ovary cells expressing hSERT; 20 nM [3H]-neurotransmitter mixture; ambient temperature; read-out: hSERT pEC50 (inhibition of serotonin uptake) (converted)

Worked set:
{"columns": ["item-smiles", "EC50"],
 "data": [
  ["c1ccc(Oc2cccc(O[C@H]3C[C@H]4CC[C@@H](C3)N4)c2)cc1", "> 1000 nM"],
  ["COc1cc(Oc2ccccc2)cc(O[C@@H]2C[C@H]3CC[C@@H](C2)N3)c1F", "> 1000 nM"],
  ["FC(F)(F)c1ccc(O[C@@H]2C[C@H]3CC[C@@H](C2)N3)cc1-c1ccccc1", "100 to 1000 nM"],
  ["FC(F)(F)c1ccccc1-c1cccc(O[C@@H]2C[C@H]3CC[C@@H](C2)N3)c1", "100 to 1000 nM"],
  ["N#Cc1ccc(-c2cc(C#N)cc(O[C@@H]3C[C@H]4CC[C@@H](C3)N4)c2)cc1", "< 100 nM"]
]}

List reported EC50 for each of these compounds:
1. N#Cc1ccc(-c2cc(C#N)cc(O[C@@H]3C[C@H]4CC[C@@H](C3)N4)c2)nc1
2. Clc1cc(Oc2ccccc2)cc(O[C@@H]2C[C@H]3CC[C@@H](C2)N3)c1

Key:
1. < 100 nM
2. > 1000 nM

---

What EC50 was measured for each of the following?
- experimental-system: human noradrenaline transporter (hNET) (Homo sapiens, UniProt P23975)
- Construct: expressed in transfected cells
- Sequence (P23975 whole entry): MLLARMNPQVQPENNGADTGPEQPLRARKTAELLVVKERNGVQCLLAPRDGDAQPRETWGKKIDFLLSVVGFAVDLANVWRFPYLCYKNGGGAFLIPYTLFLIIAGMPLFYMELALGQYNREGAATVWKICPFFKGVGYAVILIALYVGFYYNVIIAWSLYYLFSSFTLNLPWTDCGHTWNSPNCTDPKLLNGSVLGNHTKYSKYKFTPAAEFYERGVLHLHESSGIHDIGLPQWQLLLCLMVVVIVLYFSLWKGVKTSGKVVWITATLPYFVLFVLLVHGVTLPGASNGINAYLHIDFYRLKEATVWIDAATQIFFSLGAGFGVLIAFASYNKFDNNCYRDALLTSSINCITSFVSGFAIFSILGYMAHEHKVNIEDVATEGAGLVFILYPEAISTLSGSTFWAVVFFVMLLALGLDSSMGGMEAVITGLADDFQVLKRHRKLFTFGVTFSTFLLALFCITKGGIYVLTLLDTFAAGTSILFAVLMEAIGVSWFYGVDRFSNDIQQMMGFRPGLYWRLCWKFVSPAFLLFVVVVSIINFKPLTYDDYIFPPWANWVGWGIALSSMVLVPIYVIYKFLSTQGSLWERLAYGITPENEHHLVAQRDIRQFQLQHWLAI
- test-name: Assay of monoamine uptake: inhibition of noradrenaline uptake
- Format: cell-based
- measurement-context: MDCK cells expressing hNET; 20 nM [3H]-neurotransmitter mixture; 37° C.; read-out: hNET pEC50 (inhibition of noradrenaline uptake) (converted)

Worked set:
{"columns": ["item-smiles", "EC50"],
 "data": [
  ["COc1cc(Oc2ccccc2)cc(O[C@@H]2C[C@H]3CC[C@@H](C2)N3)c1F", "< 100 nM"],
  ["FC(F)(F)c1ccccc1-c1cccc(O[C@@H]2C[C@H]3CC[C@@H](C2)N3)c1", "< 100 nM"],
  ["Clc1cc(Oc2ccccc2)cc(O[C@@H]2C[C@H]3CC[C@@H](C2)N3)c1", "< 100 nM"],
  ["c1ccc(Oc2cccc(O[C@H]3C[C@H]4CC[C@@H](C3)N4)c2)cc1", "100 to 1000 nM"],
  ["N#Cc1ccc(-c2cc(C#N)cc(O[C@@H]3C[C@H]4CC[C@@H](C3)N4)c2)nc1", "> 1000 nM"]
]}

List reported EC50 for each of these compounds:
1. FC(F)(F)c1ccc(O[C@@H]2C[C@H]3CC[C@@H](C2)N3)cc1-c1ccccc1
2. N#Cc1ccc(-c2cc(C#N)cc(O[C@@H]3C[C@H]4CC[C@@H](C3)N4)c2)cc1

Key:
1. > 1000 nM
2. > 1000 nM
